meta.source: ChEMBL document CHEMBL1129763

Assign Ki to each entry below.
# target_or_test_system: Muscarinic acetylcholine receptor M1 (Rattus norvegicus)
# Sequence (P08482 whole entry): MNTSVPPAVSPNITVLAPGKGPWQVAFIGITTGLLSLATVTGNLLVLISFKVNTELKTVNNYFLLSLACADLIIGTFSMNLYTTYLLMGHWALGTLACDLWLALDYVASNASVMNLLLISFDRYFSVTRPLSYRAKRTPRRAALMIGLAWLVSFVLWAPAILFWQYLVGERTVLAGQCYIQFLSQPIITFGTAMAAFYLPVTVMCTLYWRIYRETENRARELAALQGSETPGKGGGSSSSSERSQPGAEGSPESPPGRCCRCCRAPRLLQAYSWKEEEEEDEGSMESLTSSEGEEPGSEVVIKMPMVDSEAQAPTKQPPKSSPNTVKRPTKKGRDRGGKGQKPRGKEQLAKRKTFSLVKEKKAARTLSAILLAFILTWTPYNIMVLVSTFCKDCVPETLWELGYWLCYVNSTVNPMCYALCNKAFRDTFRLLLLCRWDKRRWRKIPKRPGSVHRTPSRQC
The answer consists of two parts: a number and, after it, its unit.

# compound CC1OC2(CCN(C)CC2)C/C1=N\NC(=O)CCCc1ccccc1 (stereo not drawn) ; its Ki = 34 µM

# compound CCCC(=O)N/N=C1\CC2(CCN(C)CC2)OC1C (stereo not drawn) ; its Ki = 65 µM

# compound CC(C)C(=O)N/N=C1\CC2(CCN(C)CC2)OC1C (stereo not drawn) ; its Ki = 28 µM
